# subject-of-test: 5HT-Transporter (Homo sapiens, UniProt P31645)
# Construct: Human platelet membranes (Oceanix Biosciences Corporation, Hanover, Md., USA) were thawed; tissue Oceanix Biosciences Corporation; host or cells: human platelet membranes
# Sequence (P31645 whole entry): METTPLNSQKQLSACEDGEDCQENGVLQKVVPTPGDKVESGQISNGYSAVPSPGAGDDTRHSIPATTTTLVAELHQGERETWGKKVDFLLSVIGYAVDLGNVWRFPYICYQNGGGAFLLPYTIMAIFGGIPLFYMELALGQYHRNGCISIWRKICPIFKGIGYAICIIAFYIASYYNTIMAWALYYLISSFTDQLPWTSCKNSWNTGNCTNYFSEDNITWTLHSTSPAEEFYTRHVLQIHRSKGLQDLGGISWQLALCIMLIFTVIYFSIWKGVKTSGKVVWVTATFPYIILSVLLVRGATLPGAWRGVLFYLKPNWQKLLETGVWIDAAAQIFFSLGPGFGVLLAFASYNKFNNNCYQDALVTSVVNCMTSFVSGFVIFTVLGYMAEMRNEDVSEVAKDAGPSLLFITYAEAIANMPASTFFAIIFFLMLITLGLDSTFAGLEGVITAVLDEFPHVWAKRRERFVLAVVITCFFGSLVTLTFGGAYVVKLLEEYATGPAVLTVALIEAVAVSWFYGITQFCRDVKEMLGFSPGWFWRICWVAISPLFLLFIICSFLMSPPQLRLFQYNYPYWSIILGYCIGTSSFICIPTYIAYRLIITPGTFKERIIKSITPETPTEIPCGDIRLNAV
# experiment: Binding experiment for the 5HT-transporter ([3H]paroxetine, human platelet membranes)
# measurement-context: [3H]paroxetine 0.5 nM, read-out: h-5HTT pIC50 (converted)
endpoint: IC50 (µM)

[[record]]
compound = "NCc1ccc(Cn2ccnc(NC3CCN(CCOc4ccccc4)CC3)c2=O)cc1 [Compound 1-2]"
assay_result = 7.94


A. CN(Cc1ccccc1)C(=O)Cn1ccnc(NC2CCN(CCOc3ccccc3)CC2)c1=O [Compound 1-13]
B. O=C(Cn1ccnc(NC2CCN(CCOc3ccccc3)CC2)c1=O)NCCCc1ccccc1 [Compound 1-17]
C. O=c1c(N2CCN(CCOc3ccc(F)cc3)CC2)nccn1C/C=C/c1ccccc1 [Compound 11-4]
Sort by IC50, descending. Return value: ordered labels per request.
A, B, C

I. CC(C)(C)OC(=O)NCCCn1ccnc(NC2CCN(CCOc3ccccc3)CC2)c1=O [Compound 1-20]
II. O=C(Cn1ccnc(NC2CCN(CCOc3ccccc3)CC2)c1=O)NCC(c1ccccc1)c1ccccc1 [Compound 1-19]
Compare I and II by numeric IC50 and name the larger one. Pick one and reply with its label.
I

###

# subject-of-test: hα2A receptor (Homo sapiens)
# Construct: expressed in transfected cells
# Sequence (P08913 1-465): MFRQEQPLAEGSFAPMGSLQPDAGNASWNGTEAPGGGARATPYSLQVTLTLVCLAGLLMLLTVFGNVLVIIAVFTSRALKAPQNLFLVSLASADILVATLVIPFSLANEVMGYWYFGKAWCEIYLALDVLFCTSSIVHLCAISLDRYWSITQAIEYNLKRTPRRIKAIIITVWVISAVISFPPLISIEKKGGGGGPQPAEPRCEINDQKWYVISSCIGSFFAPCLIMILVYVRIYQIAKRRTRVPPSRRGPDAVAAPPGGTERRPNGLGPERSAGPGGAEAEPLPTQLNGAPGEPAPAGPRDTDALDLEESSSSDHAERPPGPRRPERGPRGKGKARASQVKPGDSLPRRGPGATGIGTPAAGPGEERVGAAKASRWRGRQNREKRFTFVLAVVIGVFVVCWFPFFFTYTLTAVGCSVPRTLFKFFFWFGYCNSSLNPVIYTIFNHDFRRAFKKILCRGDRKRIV
# experiment: Radioligand binding experiment for hα2A receptor ([3H]-raulwolscine, CHO cell membranes)
# measurement-context: [3H]raulwolscine 1 nM, membranes of CHO cells transfected with human α2A receptor; read-out: h-α2A pIC50 (converted)
endpoint: IC50 (nM)

[[record]]
compound = "O=c1c(N2CCN(CCOc3ccc(F)cc3)CC2)nccn1Cc1ccc(Cl)s1 [Compound 12-2]"
subject_of_test = "hα2A receptor (Homo sapiens)"
unit_label = "nM"
assay_result = 200


P. CC(C)(C)C(=O)Cn1ccnc(N2CCN(CCOc3ccc(F)cc3)CC2)c1=O [Compound 13-4]
Q. O=c1c(N2CCN(CCOc3ccc(F)cc3)CC2)nccn1CCOc1ccccc1 [Compound 9-2]
Param metric = IC50; output whichever of P , Q has the minimum value. Answer by quoting the chosen item's label.
Q

1. O=C1c2ccccc2C(=O)N1CC#CCn1ccnc(NC2CCN(CCOc3ccccc3)CC2)c1=O [Compound 2-16]
2. CC(C)(C)OC(=O)NCCCn1ccnc(NC2CCN(CCOc3ccccc3)CC2)c1=O [Compound 1-20]
3. O=C(Cn1ccnc(NC2CCN(CCOc3ccccc3)CC2)c1=O)N(CCN1CCCC1)Cc1ccc(F)cc1 [Compound 1-24]
rank_up(items): orders items by reported IC50 in ascending numerical order. Give the labels in the order specified.
3, 2, 1

a. O=c1c(N2CCN(CCOc3ccc(F)cc3)CC2)nccn1CCN1CCCCC1 [Compound 8-1]
b. O=C(Cn1ccnc(NC2CCN(CCOc3ccccc3)CC2)c1=O)NCCc1ccccc1 [Compound 1-15]
From the recorded data, which exceeds the other in IC50: a or b ? Refer to your chosen entry by its label in the reply.
a
(a: 631 nM, b: 251 nM)

###

# subject-of-test: hα2A receptor (Homo sapiens, UniProt P08913)
# Construct: expressed in transfected cells
# Sequence (P08913 1-465): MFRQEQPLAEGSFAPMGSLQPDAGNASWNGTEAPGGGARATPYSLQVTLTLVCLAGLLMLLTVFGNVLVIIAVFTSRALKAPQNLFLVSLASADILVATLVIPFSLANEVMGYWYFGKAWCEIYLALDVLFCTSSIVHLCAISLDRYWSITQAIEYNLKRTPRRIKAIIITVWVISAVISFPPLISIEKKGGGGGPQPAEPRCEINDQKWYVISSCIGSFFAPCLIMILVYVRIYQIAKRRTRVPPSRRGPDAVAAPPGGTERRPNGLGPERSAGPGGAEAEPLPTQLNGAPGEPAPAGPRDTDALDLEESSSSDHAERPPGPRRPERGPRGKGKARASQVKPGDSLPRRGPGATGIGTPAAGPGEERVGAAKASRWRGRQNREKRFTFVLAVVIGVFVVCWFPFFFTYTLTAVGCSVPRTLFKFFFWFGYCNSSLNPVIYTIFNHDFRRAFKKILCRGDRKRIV
# experiment: Radioligand binding experiment for hα2A receptor ([3H]-raulwolscine, CHO cell membranes)
# measurement-context: [3H]raulwolscine 1 nM, membranes of CHO cells transfected with human α2A receptor; read-out: h-α2A pIC50 (converted)
endpoint: IC50 (nM)

Check out these entries, answers already filled in.
[[record]]
molecule = "COCCCn1ccnc(N2CCN(CCOc3ccc(F)cc3)CC2)c1=O"
subject_of_test = "hα2A receptor (Homo sapiens, UniProt P08913)"
assay_result = 1260

[[record]]
molecule = "O=c1c(NC2CCN(CCOc3ccccc3)CC2)nccn1CCN1CCOCC1"
subject_of_test = "hα2A receptor (Homo sapiens, UniProt P08913)"
assay_result = 631


a. O=c1c(NC2CCN(CCOc3ccccc3)CC2)nccn1-c1cccc(N2CCC(N3CCCC3)CC2)c1
b. O=C(Cn1ccnc(NC2CCN(CCOc3ccccc3)CC2)c1=O)N1CCC(N2CCCC2)CC1
Endpoint returns the identifier whose IC50 is numerically larger, either a or b . Reply with the label of the item you choose.
b
(b: 79.4 nM, a: 7.94 nM)

###

# subject-of-test: 5HT-Transporter (Homo sapiens)
# Construct: Human platelet membranes (Oceanix Biosciences Corporation, Hanover, Md., USA) were thawed; tissue Oceanix Biosciences Corporation; host or cells: human platelet membranes
# experiment: Binding experiment for the 5HT-transporter ([3H]paroxetine, human platelet membranes)
# measurement-context: [3H]paroxetine 0.5 nM, read-out: h-5HTT pIC50 (converted)
endpoint: IC50 (µM)

[[record]]
molecule = "O=C(Cn1ccnc(NC2CCN(CCOc3ccccc3)CC2)c1=O)N(CCN1CCCC1)Cc1ccc(F)cc1 [Compound 1-24]"
assay_result = 5.01


1. O=c1c(N2CCN(CCOc3ccc(F)cc3)CC2)nccn1Cc1ccc(-c2ccccc2)cc1 [Compound 11-6]
2. O=C(Cn1ccnc(NC2CCN(CCOc3ccccc3)CC2)c1=O)c1ccccc1 [Compound 4-6]
3. CN(C(=O)Cn1ccnc(NC2CCN(CCOc3ccccc3)CC2)c1=O)C1CCCCC1 [Compound 1-6]
4. O=c1c(N2CCN(CCOc3ccc(F)cc3)CC2)nccn1CCOc1ccccc1 [Compound 9-2]
Hey, quick one: sort these by IC50, low to high? Return the labels ranked in the requested order, please.
1, 4, 2, 3

###

# subject-of-test: hα2C receptor (Homo sapiens, UniProt P18825)
# Construct: expressed in transfected cells
# experiment: Radioligand binding experiment for α2C-adrenoceptor ([3H]-raulwolscine, CHO cell membranes)
# measurement-context: [3H]raulwolscine 1 nM, membranes of CHO cells transfected with human α2C receptor; read-out: h-α2C pIC50 (converted)
endpoint: IC50 (nM)

[[record]]
compound = "O=c1c(NC2CCN(CCOc3ccccc3)CC2)nccn1-c1cccc(NCc2ccccc2)c1"
subject_of_test = "hα2C receptor (Homo sapiens, UniProt P18825)"
assay_result = 3.98


P. CN(C)CCCn1ccnc(NC2CCN(CCOc3ccccc3)CC2)c1=O
Q. CC(=O)Cn1ccnc(NC2CCN(CCOc3ccccc3)CC2)c1=O
R. CC(C)(C)C(=O)Cn1ccnc(NC2CCN(CCOc3ccccc3)CC2)c1=O [Compound 5-5]
S. CN(C)C(=O)Cn1ccnc(N2CCN(CCOc3ccc(F)cc3)CC2)c1=O
List items by IC50 in falling order. List labels; respect the requested ordering.
S, Q, R, P
(S: 501 nM, Q: 31.6 nM, R: 7.94 nM, P: 3.98 nM)

###

# subject-of-test: hα2C receptor (Homo sapiens)
# Construct: expressed in transfected cells
# Sequence (P18825 1-462): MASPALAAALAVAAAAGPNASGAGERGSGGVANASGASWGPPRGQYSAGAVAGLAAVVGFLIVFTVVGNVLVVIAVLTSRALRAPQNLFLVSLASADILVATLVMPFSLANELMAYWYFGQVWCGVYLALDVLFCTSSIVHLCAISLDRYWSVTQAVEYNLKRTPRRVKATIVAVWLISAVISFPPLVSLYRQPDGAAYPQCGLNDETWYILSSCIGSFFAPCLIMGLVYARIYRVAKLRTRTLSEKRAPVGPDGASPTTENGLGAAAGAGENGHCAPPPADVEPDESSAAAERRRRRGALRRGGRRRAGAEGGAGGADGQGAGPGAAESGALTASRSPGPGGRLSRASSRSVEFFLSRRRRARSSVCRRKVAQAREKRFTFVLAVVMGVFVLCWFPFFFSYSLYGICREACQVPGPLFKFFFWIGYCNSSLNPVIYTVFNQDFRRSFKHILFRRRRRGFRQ
# experiment: Radioligand binding experiment for α2C-adrenoceptor ([3H]-raulwolscine, CHO cell membranes)
# measurement-context: [3H]raulwolscine 1 nM, membranes of CHO cells transfected with human α2C receptor; read-out: h-α2C pIC50 (converted)
endpoint: IC50 (µM)

Consider the following illustrative entries.
[[record]]
compound = "CC(C)(C)C(=O)Cn1ccnc(N2CCN(CCOc3ccc(F)cc3)CC2)c1=O"
endpoint = "IC50"
unit_label = "µM"
assay_result = 0.2

[[record]]
compound = "O=C(Cn1ccnc(NC2CCN(CCOc3ccccc3)CC2)c1=O)N(CCN1CCCC1)Cc1ccc(F)cc1"
endpoint = "IC50"
unit_label = "µM"
assay_result = 0.000316

[[record]]
compound = "O=C(Cn1ccnc(NC2CCN(CCOc3ccccc3)CC2)c1=O)N(CCN1CCCC1)Cc1ccccc1"
endpoint = "IC50"
unit_label = "µM"
assay_result = 0.000501

[[record]]
compound = "NCc1ccc(Cn2ccnc(N3CCN(CCOc4ccc(F)cc4)CC3)c2=O)cc1"
endpoint = "IC50"
unit_label = "µM"
assay_result = 0.0631

[[record]]
compound = "O=c1c(N2CCN(CCOc3ccc(F)cc3)CC2)nccn1CCOc1ccccc1"
endpoint = "IC50"
unit_label = "µM"
assay_result = 0.251


1. NCc1ccc(Cn2ccnc(NC3CCN(CCOc4ccccc4)CC3)c2=O)cc1
2. O=C(Cn1ccnc(NC2CCN(CCOc3ccccc3)CC2)c1=O)N1CCC(C(F)(F)F)CC1
Parameter check: reported IC50 is higher for which label, 1 or 2 ? Write the label of whichever entry you select.
2
(2: 0.00398 µM, 1: 0.00158 µM)

P. COCCCn1ccnc(N2CCN(CCOc3ccc(F)cc3)CC2)c1=O
Q. O=c1c(NC2CCN(CCOc3ccccc3)CC2)nccn1CCCn1c(=O)[nH]c2ccccc21
R. O=c1c(NC2CCN(CCOc3ccccc3)CC2)nccn1CCN1CCOCC1
S. O=c1c(N2CCN(CCOc3ccc(F)cc3)CC2)nccn1CCN1CCCCC1
Please rank these compounds by IC50 in descending order. Rank them, then answer with their labels in that order.
P, S, R, Q

I. CCCn1ccnc(NC2CCN(CCOc3ccccc3)CC2)c1=O
II. O=c1c(N2CCN(CCOc3ccc(F)cc3)CC2)nccn1CC1CCCCC1
Compare reported IC50 values for I and II . Which is lower? Please reply using the label of the selected record.
I
(I: 0.0158 µM, II: 0.251 µM)

P. COC(=O)Cn1ccnc(NC2CCN(CCOc3ccccc3)CC2)c1=O
Q. O=C(Cn1ccnc(NC2CCN(CCOc3ccccc3)CC2)c1=O)N1CCCCC1
R. O=c1c(NC2CCN(CCOc3ccccc3)CC2)nccn1CC1CCCCO1 (centres unmarked)
Could you please order the items by IC50, going from the lowest number to the highest? Give the labels in the order specified.
Q, P, R

The values you see were collected from patent US20090281099A1.
